Biological target: Protein disulfide-isomerase (Homo sapiens)
Test: inhibition of PDI-mediated insulin reduction – biochemical, turbidity, absorbance, cherry-picked samples, set 2, dose response (AID 624274)
Conditions: absorbance 650 nm
ENDPOINT LABEL: AC50

COMPOUND | TESTED TARGET | AC50
Cc1cc(O)cc2c1C1CCC3(C)C(=O)CCC3C1C=C2 (stereo unspecified) | Protein disulfide-isomerase (Homo sapiens) | 19.5 µM
COc1cccc(NS(=O)(=O)c2ccc3c(c2)C2C=CCC2C(c2ccc(C(=O)O)cc2)N3)c1 (stereo unspecified) | Protein disulfide-isomerase (Homo sapiens) | 15.8 µM
O=C(O)C1C(c2ccccc2)C(C(=O)Oc2ccc(O)cc2)C1c1ccccc1 (stereo unspecified) | Protein disulfide-isomerase (Homo sapiens) | 14.7 µM
C[C@H]1CN([C@@H](C)CO)C(=O)c2cc(NC(=O)Cc3cn(C)c4ccccc34)ccc2O[C@@H]1CN(C)S(=O)(=O)c1ccc(F)cc1 | Protein disulfide-isomerase (Homo sapiens) | 19.5 µM
C[C@@H]1O[C@@H](O[C@H]2[C@H](O)[C@@H](O)[C@H](Oc3c(-c4ccc(O)c(O)c4)oc4cc(O)cc(O)c4c3=O)O[C@@H]2CO)[C@H](O)[C@H](O)[C@H]1O | Protein disulfide-isomerase (Homo sapiens) | 4.28 µM
Cc1noc(C)c1S(=O)(=O)Nc1ccc2c(c1)CC(=O)N([C@H](C)CO)C[C@H](C)[C@H](CN(C)S(=O)(=O)c1ccccc1)O2 | Protein disulfide-isomerase (Homo sapiens) | 19.5 µM
NNC(=O)c1cc(-c2ccc(O)cc2)nc2ccc(Br)cc12 | Protein disulfide-isomerase (Homo sapiens) | 19.5 µM
CCSc1nnc([C@H](Cc2c[nH]c3ccccc23)NC(=O)OC(C)(C)C)o1 | Protein disulfide-isomerase (Homo sapiens) | 19.5 µM
CC(Cc1ccccc1Sc1ccccc1O)N(C)C (stereo unspecified) | Protein disulfide-isomerase (Homo sapiens) | 15.9 µM
CC(=O)OC[C@H]1O[C@@H](Oc2cc(O)cc3oc(-c4ccc(O)cc4)cc(=O)c23)[C@H](O[C@@H]2O[C@@H](C)[C@H](O)[C@@H](O)[C@H]2O)[C@@H](O)[C@@H]1O | Protein disulfide-isomerase (Homo sapiens) | 19.5 µM

Given the compound C[C@H](CO)N1C[C@H](C)[C@@H](CN(C)S(=O)(=O)c2ccccc2)Oc2ccc(NC(=O)Cc3cn(C)c4ccccc34)cc2C1=O , what is its reported AC50? 0.125 µM

Given the compound CCOC(=O)C1(CCOc2ccccc2)CCN(Cc2cc(OC)c(O)cc2Cl)CC1 , what is its reported AC50? 6.03 µM

Given the compound C[C@H]1CN([C@@H](C)CO)C(=O)Cc2cc(NC(=O)Nc3ccccc3)ccc2O[C@H]1CN(C)Cc1ccccc1 , what is its reported AC50? 10.3 µM

Given the compound C[C@@H]1O[C@@H](OC[C@H]2O[C@@H](Oc3c(-c4ccc(O)c(O)c4)oc4cc(O)cc(O)c4c3=O)[C@H](O)[C@@H](O)[C@@H]2O)[C@H](O)[C@H](O)[C@H]1O , what is its reported AC50? 7.62 µM

Given the compound CC[C@]12c3[nH]c4cc(-c5ccco5)ccc4c3CCN1C(=O)[C@@H](CC(=O)NCCCOC)C[C@@H]2C(=O)N1CCN(C(=O)c2ccco2)CC1 , what is its reported AC50? 16.7 µM

Given the compound Cc1n[nH]c(=O)c2c(NC(=O)CSc3nnnn3-c3ccc(O)cc3)oc(C)c12 , what is its reported AC50? 19.5 µM
